Attribution: paper PMC12416549

Biological target: T1, TNFR1 (Homo sapiens, UniProt P19438)
T1 chain: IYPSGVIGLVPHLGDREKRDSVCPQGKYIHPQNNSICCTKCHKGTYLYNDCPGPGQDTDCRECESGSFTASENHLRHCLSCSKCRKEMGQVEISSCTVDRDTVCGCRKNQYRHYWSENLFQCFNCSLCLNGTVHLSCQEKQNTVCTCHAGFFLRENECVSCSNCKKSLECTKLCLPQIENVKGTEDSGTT
Experiment: yeast display SC50
READOUT KIND: apparent Kd (screen)

1. L40V (designed binder) SMEEEVEKAAKEYEKKKKEAIEKHLEKLKAKDKEAAERFVKELEEAAKEYAKDEAKTMSEEEAKRRAKKYKEKVLLSELSEEEQKEIKEAEEKLVRTILKYVEEAAK = 0.49 nM
2. K56R (designed binder) SMEEEVEKAAKEYEKKKKEAIEKHLEKLKAKDKEAAERFLKELEEAAKEYAKDEARTMSEEEAKRRAKKYKEKVLLSELSEEEQKEIKEAEEKLVRTILKYVEEAAK = 1.54 nM
3. E104I (designed binder) SMEEEVEKAAKEYEKKKKEAIEKHLEKLKAKDKEAAERFLKELEEAAKEYAKDEAKTMSEEEAKRRAKKYKEKVLLSELSEEEQKEIKEAEEKLVRTILKYVEIAAK = 0.653 nM
4. K56A (designed binder) SMEEEVEKAAKEYEKKKKEAIEKHLEKLKAKDKEAAERFLKELEEAAKEYAKDEAATMSEEEAKRRAKKYKEKVLLSELSEEEQKEIKEAEEKLVRTILKYVEEAAK = 3 nM
